property measured: melting point

INSERT INTO measurements (molecule, property_measured, readout_value) VALUES
  ('CCC1C(=O)Oc2c(Oc3ccccc3C)cccc21 (stereo not given)', 'melting point', '44 to 45 °C'),
  ('COc1ccc(-c2ccc(C(=O)Nc3ccc4nc(CN5CCCCC5)ccc4c3)cc2)cc1', 'melting point', '192 to 194 °C'),
  ('O=C1CCN(Cc2cccnc2)CC1C(c1ccccc1)c1ccccc1 (stereo not given)', 'melting point', '121 to 122 °C'),
  ('CC1(C)C(=NO)C(c2ccccc2)=C1c1ccc(S(C)(=O)=O)cc1', 'melting point', '217 to 220 °C'),
  ('C=CCO[C@H]1[C@@H](OCc2ccccc2)[C@@H](OCc2ccccc2)[C@H](OCc2ccccc2)[C@@H](OCc2ccccc2)[C@]1(O)CC=C (racemic)', 'melting point', '97.5 °C');

###

property measured: melting point

INSERT INTO measurements (compound, property_measured, readout_value) VALUES
  ('Cc1cccc(C(=O)NC(C)C)c1NC(=O)c1cc(C(F)(F)F)nn1-c1ncccc1Cl', 'melting point', '194 to 196 °C'),
  ('CS(=O)(=O)c1ccc(-n2nc(C(F)(F)F)cc2-c2ccc(-c3cscn3)c(F)c2)cc1', 'melting point', '176 to 178 °C'),
  ('CCCc1c(OCCCOc2ccc3c(c2CCC)OC(CCC(=O)O)CC3=O)ccc(C(C)=O)c1O (configuration not stated)', 'melting point', '149 to 150 °C'),
  ('O=C(Cc1ccc(Oc2ccccc2)cc1)NNC(=O)c1ccc(O)cc1', 'melting point', '181 to 183 °C'),
  ('COCC[C@H]1CN(C2=Nc3ccccc3Nc3ccc(C(F)(F)F)cc32)CCN1C', 'melting point', '48 to 56 °C'),
  ('CC(C)C(=NO)c1ccc(Cl)cc1', 'melting point', '91 to 117 °C'),
  ('CCOC(=O)C(=O)Nc1cccc(S(C)=O)c1C(N)=O (configuration not stated)', 'melting point', '164 to 166 °C');

###

Item-by-item account of melting point
property measured: melting point

INSERT INTO measurements (molecule, readout_value) VALUES
  ('CC(=O)NC(Cc1ccccc1)C(O)C(Cc1ccccc1)NC(C)=O (configuration not stated)', '125 to 126 °C'),
  ('CN(CCN)CCNC(=O)c1nc(Br)c(N)nc1N', '148 to 150 °C'),
  ('O=C1C(O)=C([N+](=O)[O-])C(=O)c2ccc(Br)cc21', '172 °C'),
  ('CCOC(=O)C(=O)CC(=O)c1cn(Cc2cccc(OC)c2)c2ccccc2c1=O', '177 to 179 °C'),
  ('CCc1cc2c(Sc3nnc(C)s3)ncnc2s1', '132 to 135 °C'),
  ('Cc1ccccc1-n1cc(C#N)c(=O)[nH]c1=O', '252 °C'),
  ('CNc1nc(Cl)c(Cl)c(N2CCN(CC[C@H]3CC[C@H](NC(=O)OC(C)(C)C)CC3)CC2)n1', '199 to 202 °C'),
  ('COc1cc(C2c3cc4c(cc3C(NC3=CC(=O)N(C)C3=O)C3COC(=O)C23)OCO4)cc(OC)c1O (configuration not stated)', '238 to 241 °C'),
  ('CN(C)c1cccc2c(S(=O)(=O)Nc3ccc([N+](=O)[O-])cn3)cccc12', '196 °C'),
  ('Cc1cc(C(C)(C)C)c(OC(=O)c2cc(C(C)(C)C)c(O)c(C(C)(C)C)c2)c(C)c1COC(=S)c1cc(C(C)(C)C)c(O)c(C(C)(C)C)c1', '225 to 228 °C'),
  ('CC(C)(C)OC(=O)CON=C(C(=O)O)c1cccc(NC=O)n1', '162 to 168 °C'),
  ('COC1=C(OC)C(=O)c2cc(Sc3ccccc3Cl)ccc2C1=O', '125 to 126 °C'),
  ('CC12CCC(O)CC1=CCC1C2CCC2(C)C(=NC3CC3)CCC12 (configuration not stated)', '187 °C'),
  ('CC(C)(C)OC(=O)Nc1ccc(OC2CN(C(c3ccccc3)c3ccccc3)C2)cc1', '149 to 151 °C'),
  ('O=C1c2ccccc2C(=O)N1CCc1cn(C2OCC(O)C(O)C2O)c(=O)[nH]c1=O (configuration not stated)', '137 °C'),
  ('Cc1ccc(-c2cc(C(O)C#Cc3ccc(C(=O)O)cc3)cc3c2C(C)(C)CCC3(C)C)cc1 (configuration not stated)', '180 °C'),
  ('COC(=O)c1cc(C#N)cc2c1OC(c1ccccc1)(c1ccccc1)O2', '141 °C'),
  ('COc1ccc(N=C(C#CSc2ccccc2)N2CCN(C)CC2)cc1', '160 °C'),
  ('CCN(CC)C(C)CN1CCc2c(c(=O)oc3cc(C)c(Cl)cc23)C1 (configuration not stated)', '78 to 80 °C'),
  ('COc1ccccc1OC(=O)c1ncn2c1[C@@H]1CCCN1C(=O)c1c(Cl)cccc1-2', '205 to 206 °C'),
  ('O=CCC1Cc2cc(F)c(F)cc2C1=O (racemic)', '78 to 81 °C'),
  ('CCn1c2ccccc2c2cc(/C=C/C(=O)CC(=O)/C=C/c3ccc4c(c3)c3ccccc3n4CC)ccc21', '264 to 267 °C'),
  ('O=C(C=Cc1cccc(O)c1)C=Cc1cccc(O)c1', '190 to 195 °C'),
  ('O=C1C(=O)N2CCCc3cc(Cl)cc1c32', '188 to 189 °C'),
  ('COC(=O)[C@H](Cc1ccc(CC(=O)O)cc1)NC(=O)OC(C)(C)C', '141 to 143 °C'),
  ('CC(=O)OC1CSC(Oc2cccc(-c3c(C)noc3C)c2)C(OC(C)=O)C1OC(C)=O (configuration not stated)', '167 to 169 °C'),
  ('COc1cc2c3ccc(OC)c(OC)c3n(S(=O)(=O)c3cc(Cl)ccc3Cl)c2cc1OC', '221 to 224 °C'),
  ('O=C(CC1CCOCC1)N[C@H]1CC[C@H](CCN2CCC(c3cccc4c3CCO4)CC2)CC1', '191 °C'),
  ('CCOC(=O)COc1ccc(SCc2ccnc3[nH]c(-c4ccc(C(F)(F)F)cc4)nc23)cc1C', '239 to 241 °C'),
  ('CCCc1nc2c(N)nc3cc(OCCCCCCNC(C)=O)ccc3c2n1CCCCNS(C)(=O)=O', '168 to 172 °C'),
  ('CC(C)c1nn(-c2c(Cl)cc(C(F)(F)F)cc2Cl)c(Cl)c1-c1nc(C#N)c(C#N)[nH]1', '96 to 99 °C'),
  ('N#Cc1cc(-c2cnccn2)c[nH]c1=O', '250 °C');
